experimentalProtocol: self-splicing fitness, log relative to wild type (ln ratio); higher = more splicing; Tetrahymena group I intron in knt gene, E. coli kanamycin selection, DiMSum; sequences stand for … in CUCUCU…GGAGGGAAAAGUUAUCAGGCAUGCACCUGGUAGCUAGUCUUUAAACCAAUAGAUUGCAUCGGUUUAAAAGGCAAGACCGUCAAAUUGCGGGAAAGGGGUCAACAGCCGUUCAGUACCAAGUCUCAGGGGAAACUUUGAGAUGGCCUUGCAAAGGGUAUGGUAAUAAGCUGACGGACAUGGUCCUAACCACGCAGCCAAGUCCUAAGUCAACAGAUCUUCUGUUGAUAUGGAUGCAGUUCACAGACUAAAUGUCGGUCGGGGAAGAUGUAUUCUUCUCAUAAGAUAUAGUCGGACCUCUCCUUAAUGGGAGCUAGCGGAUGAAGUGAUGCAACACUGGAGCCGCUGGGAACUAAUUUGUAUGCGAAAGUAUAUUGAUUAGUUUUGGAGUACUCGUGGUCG;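 also: selection with 25 µg/mL kanamycin versus none on LB agar overnight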
studyConditions: 37 °C
Label yes (1) when self-splicing fitness (ln) is at or above -2; anything below gets no (0).

> print(dat)
            itemsequence  classname
 1  UUCCAGCAAUAUUACGAGAA    yes (1)
 2  UCCCAGCAAUAUUACGGACU    yes (1)
 3  CAGCAGCAAUAUUACGCUUA    yes (1)
 4  CCAUAGCAAUAUUACGGCCG    yes (1)
 5  CAUAAGCAAUAUUACGAUGU     no (0)
 6  CCCCAGCAAUAUUACGUCAU     no (0)
 7  UUGAAGCAAUAUUACGGAAA    yes (1)
 8  CCUAAGCAAUAUUACGGAAA     no (0)
 9  GAAUAGCAAUAUUACGACGA    yes (1)
10  UAGUAGCAAUAUUACGGAAG    yes (1)
11  GGUAAGCAAUAUUACGUCCU    yes (1)
12  UGCCAGCAAUAUUACGGCUC    yes (1)
13  UCUGAGCAAUAUUACGACGG    yes (1)
14  AAUUAGCAAUAUUACGUGAC     no (0)
15  AUCUAGCAAUAUUACGGUAG     no (0)
16  AUCAAGCAAUAUUACGUGCG    yes (1)
17  CAUAAGCAAUAUUACGGGUG    yes (1)
18  GAUCAGCAAUAUUACGUCGG     no (0)
19  UGUCAGCAAUAUUACGUUGA     no (0)
20  GCAUAGCAAUAUUACGGAAC     no (0)
21  CAGGAGCAAUAUUACGUUGU     no (0)
22  AUGUAGCAAUAUUACGAAUC     no (0)
23  GGAUAGCAAUAUUACGUAAC    yes (1)
24  AUUAAGCAAUAUUACGGUCC    yes (1)
25  ACUUAGCAAUAUUACGGGUU     no (0)
26  AUGUAGCAAUAUUACGUUUC     no (0)
27  CGACAGCAAUAUUACGAGGC     no (0)
28  GUCGAGCAAUAUUACGAGGC     no (0)
29  ACGGAGCAAUAUUACGCAAG    yes (1)
30  CCCAAGCAAUAUUACGAGAU     no (0)
31  CCGUAGCAAUAUUACGAACC     no (0)
32  UUCGAGCAAUAUUACGAGUG    yes (1)
33  CGGUAGCAAUAUUACGGCGU    yes (1)
34  GCACAGCAAUAUUACGUGAA    yes (1)
35  GAGCAGCAAUAUUACGUAGG     no (0)
36  CCUUAGCAAUAUUACGAGUG    yes (1)
37  GCGGAGCAAUAUUACGUAGA     no (0)
38  CCACAGCAAUAUUACGAUCU     no (0)
39  CACAAGCAAUAUUACGUUAC     no (0)
40  UACAAGCAAUAUUACGCACA    yes (1)
41  UACCAGCAAUAUUACGCGGC     no (0)
42  UUCAAGCAAUAUUACGUUUA    yes (1)
43  GUAUAGCAAUAUUACGAUUG    yes (1)
44  GCUUAGCAAUAUUACGGUCG    yes (1)
45  GGCUAGCAAUAUUACGGGAA    yes (1)
46  UAUGAGCAAUAUUACGGACA     no (0)
47  AAAGAGCAAUAUUACGCUCA    yes (1)
48  UGUCAGCAAUAUUACGGCUC    yes (1)
49  UCUAAGCAAUAUUACGUCGG    yes (1)
50  CUAUAGCAAUAUUACGCCGC     no (0)
51  AAUAAGCAAUAUUACGUAGU     no (0)
52  ACUAAGCAAUAUUACGUUAC     no (0)

The reported numbers originate from the supplement of paper PMC7877785.
